- Tested on: 786-O (clear cell renal cell adenocarcinoma cell)
- assay_comment: Cell viability assay (Promega CellTiter-Glo), inhibitory effect on 786-O
- Format: cell-based
- details: Homo sapiens, 786-0, 72 h, 3 days of culture
pIC50: −log10 of the molar value.
Could you label it met if measured pIC50 is 5 or higher, and not met otherwise?

Some solved cases for reference:
COc1ccc2cc3[n+](cc2c1OCCCCCCBr)CCc1cc2c(cc1-3)OCO2	met
COc1ccc2cc3[n+](cc2c1OCC(=O)/C=C/c1ccc(C)cc1)CCc1cc2c(cc1-3)OCO2	met
COc1ccc2c(Cc3ccc(C(C)C)cc3)c3[n+](cc2c1OC)CCc1cc2c(cc1-3)OCO2	met
COc1ccc2cc3[n+](cc2c1NCCc1ccccc1)CCc1cc2c(cc1-3)OCO2	met
CCc1c2c(OC)c(OC)ccc2cc2[n+]1CCc1cc3c(cc1-2)OCO3	not met
COc1ccc2cc3[n+](cc2c1OCCCCCCNC(=O)OC(C)(C)C)CCc1cc2c(cc1-3)OCO2	met
CCCCCCCCNc1c(OC)ccc2cc3[n+](cc12)CCc1cc2c(cc1-3)OCO2	met
COc1ccc2c(Cc3ccc(C(F)(F)F)cc3)c3[n+](cc2c1OC)CCc1cc2c(cc1-3)OCO2	not met
COc1ccc2cc3[n+](cc2c1OC(=O)CC12CC4CC(CC(C4)C1)C2)CCc1cc2c(cc1-3)OCO2	not met
CCC(CC)C(=O)Oc1c(OC)ccc2cc3[n+](cc12)CCc1cc2c(cc1-3)OCO2	not met

Lab note: next compound to report on.
Decide: is the reported value of pIC50 for COc1ccc2cc3[n+](cc2c1OCCCCOc1ccccc1)CCc1cc2c(cc1-3)OCO2 equal to or greater than 5?
met

The values you see were collected from patent US20250195502A1.
